biological target: Bromodomain testis-specific protein (Homo sapiens); experiment: Inhibition of BI-BODIPY binding to BRDT bromodomain 1 (29 to 134 residues) (unknown origin) expressed in Escherichia coli BL21(DE3) by fluorescence anisotropy assay
measured-metric: log10 IC50 (log10 of the value in µM)

> print(dat)
                                   compound  reported
1  CCn1c2c(c(=O)[nH]c1=O)C(c1ccc(C)cc1)C1=C(CN(Cc3ccccc3)C1=O)N2 (centres undefined)     -0.26
2              CCn1c(=O)n(CC)c2cc(C=O)ccc21      2.15
3  CCC1(C)Cc2ccccc2-c2ncnc(O)c21 (centres undefined)      2.34
4          CON/C=N/c1nc2nccc(-c3cccnc3)n2n1      2.08
5  CN1C(=O)CC/N=C(/c2ccc(Cl)cc2)c2cc(Cl)ccc21      2.34
6  CCn1c2c(c(=O)[nH]c1=O)C(c1ccc(C)cc1)C1=C(CN(CCc3ccc(OC)cc3)C1=O)N2 (centres undefined)      0.00
7  CCn1c2c(c(=O)[nH]c1=O)C(c1ccc(C)cc1)C1=C(COC1=O)N2 (centres undefined)      0.72
8  CCn1c2c(c(=O)[nH]c1=O)C(c1ccc(C)cc1)C1=C(CN(CCc3ccccc3)C1=O)N2 (centres undefined)      0.00
9  CCn1c2c(c(=O)[nH]c1=O)C(c1ccc(C)cc1)C1=C(CN(CCc3ccc(O)cc3)C1=O)N2 (centres undefined)     -0.12
